# STUDY_TARGET: GORASP1, Q9BQQ3
# Sequence (Q9BQQ3 1-208): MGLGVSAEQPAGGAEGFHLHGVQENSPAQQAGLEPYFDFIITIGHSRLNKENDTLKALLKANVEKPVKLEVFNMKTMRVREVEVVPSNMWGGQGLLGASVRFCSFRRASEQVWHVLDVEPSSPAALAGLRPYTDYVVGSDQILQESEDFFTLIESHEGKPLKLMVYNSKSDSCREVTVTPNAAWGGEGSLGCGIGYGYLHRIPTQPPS
# ASSAY_SUMMARY: holdup assay
# Set-up: key: below the threshold = too weak to quantify, mostly under pKd 3.1 to 4
# MEASUREMENT_CONDITIONS: plain residues with an end cap or a label only (N-terminal biotin on a linker: ado-ado)
ENDPOINT: pKd

- BINDER: "SRSVVESDEL [MYPN, Q86TC9]"
  pKd: "below the threshold"
- BINDER: "NIAESLESLV [PTPRZ1, P23471]"
  pKd: "below the threshold"
- BINDER: "AQRARSPSDV [GPR12, P47775]"
  pKd: "below the threshold"
- BINDER: "PYPTADHMLA [JUP, P14923]"
  pKd: "below the threshold"
- BINDER: "EDPRVEVTQF [SLC22A9, Q8IVM8]"
  pKd: "below the threshold"

Problem: I would be grateful if you could share the reported pKd for QLSFNTDTLC [ABCA2, Q9BZC7] .
Solution: below the threshold

Problem: I would be grateful if you could share the reported pKd for AAVENKVTDL [PLXNB1, O43157] .
Solution: below the threshold

Problem: I would be grateful if you could share the reported pKd for DPAESMESLV [PTPRG, P23470] .
Solution: below the threshold
